The origin of these recorded values is ChEMBL document CHEMBL4190244.

# CC50 at 24 h per record follows
# test-details: Cytotoxicity against PEK cells after 24 hrs
# Assay type: cell-based, Sus scrofa
# setup-conditions: pig

Field: example entries. Status: answers known.
| smiles-repr | CC50 at 24 h |
| --- | --- |
| O=c1[nH]c(=O)n([C@H]2C[C@H](O)[C@@H](CO)O2)cc1-n1cc(-c2ccc3c4cccc5cccc(c6cccc2c63)c54)nn1 | > 50 µM |
| OCCn1cc(-c2ccc3c4cccc5cccc(c6cccc2c63)c54)nn1 | > 50 µM |
| O=c1[nH]c(=O)n([C@H]2C[C@H](O)[C@@H](CO)O2)cc1-n1cc(-c2ccccc2)nn1 | > 50 µM |

Would you kindly share the measured CC50 at 24 h for O=c1[nH]c(=O)n([C@H]2C[C@H](O)[C@@H](CO)O2)cc1-n1cc(-c2cc3cccc4c5cccc6cccc(c(c2)c34)c65)nn1 ?
> 50 µM

OCCn1cc(-c2cc3cccc4c5cccc6cccc(c(c2)c34)c65)nn1 , same question.
> 50 µM

O=c1[nH]c(=O)n([C@@H]2O[C@H](CO)[C@@H](O)[C@H]2O)cc1-n1cc(-c2ccc3c4cccc5cccc(c6cccc2c63)c54)nn1 , same question.
> 50 µM

O=c1[nH]c(=O)n([C@@H]2O[C@H](CO)[C@@H](O)[C@H]2O)cc1-n1cc(-c2ccccc2)nn1 , same question.
> 50 µM

O=c1[nH]c(=O)n([C@@H]2O[C@H](CO)[C@@H](O)[C@H]2O)cc1-n1cc(-c2cc3cccc4c5cccc6cccc(c(c2)c34)c65)nn1 , same question.
> 50 µM
